Experiment notes: Pharmacokinetics of α-MG after oral administration to mice (automated microsampling)
Assay type: in vivo
Stated conditions: mouse, plasma, oral, 100 mg/kg
Observation type: Cmax (ng/mL)
Express the result in ng/mL but write the number alone.

Param item = COc1c(O)cc2oc3cc(O)c(CC=C(C)C)c(O)c3c(=O)c2c1CC=C(C)C ; retrieve measured Cmax.
709

====

Experiment notes: Pharmacokinetics of α-MG after intravenous administration to mice (automated microsampling)
Type: in vivo
Stated conditions: mouse, plasma, intravenous, 20 mg/kg, read-out: V ss
Procedure: The surgical procedures were conducted under intramuscular injection anesthesia with 125 mg (1.5 mL)/kg of tiletamine HCl and zolazepam HCl mixture. […] Standard methods were used to calculate the following pharmacokinetic parameters using a non-compartmental analysis (WinNonlin 2.1; Pharmasight Corp., Mountain View, CA). The extent of absolute oral bioavailability (F) was calculated by dividing the AUCoral/AUCiv at the same dose. […]
Observation type: Vd (L/kg)
Answer format: numeric, L/kg implied, no suffix.

Entry under review: COc1c(O)cc2oc3cc(O)c(CC=C(C)C)c(O)c3c(=O)c2c1CC=C(C)C . Reported Vd?
4.5

====

Experiment notes: Pharmacokinetics of α-MG after intravenous administration to mice (automated microsampling)
Assay type: in vivo
Stated conditions: mouse, plasma, intravenous, 10 mg/kg
Observation type: clearance (mL/min/kg)
Give your result in mL/min/kg as a bare value.

Would you mind telling me what clearance value was observed for COc1c(O)cc2oc3cc(O)c(CC=C(C)C)c(O)c3c(=O)c2c1CC=C(C)C ?
31.3

====

Experiment notes: Pharmacokinetics of α-MG after intravenous administration to mice (automated microsampling)
Assay type: in vivo
Stated conditions: mouse, plasma, intravenous, 5 mg/kg
Observation type: MRT (h)
Please give a number only; it is taken to be in h.

What value of MRT has been reported for the following molecule? COc1c(O)cc2oc3cc(O)c(CC=C(C)C)c(O)c3c(=O)c2c1CC=C(C)C
2.42

====

Experiment notes: Pharmacokinetics of α-MG after oral administration to mice (automated microsampling)
Format: in vivo
Stated conditions: mouse, plasma, oral, 50 mg/kg (n = 7)
Observation type: AUC (ng·h/mL)
// note: answer is a bare numeric in ng·h/mL

Which measured AUC value corresponds to COc1c(O)cc2oc3cc(O)c(CC=C(C)C)c(O)c3c(=O)c2c1CC=C(C)C [α-MG, α-Mangostin] ?
622

====

Experiment notes: Mouse plasma protein binding using an equilibrium dialysis technique
Format: in vitro ADME
Stated conditions: pH 7.4, fresh mouse plasma, 1 μg/mL
Observation type: fraction unbound at 1 μg/mL
# output: bare number, no unit

Please look up its fraction unbound at 1 μg/mL: COc1c(O)cc2oc3cc(O)c(CC=C(C)C)c(O)c3c(=O)c2c1CC=C(C)C
0.082

====

Experiment notes: Pharmacokinetics of α-MG after oral administration to mice (automated microsampling)
Assay type: in vivo
Stated conditions: mouse, plasma, oral, 50 mg/kg, median (ranges)
Protocol: The surgical procedures were conducted under intramuscular injection anesthesia with 125 mg (1.5 mL)/kg of tiletamine HCl and zolazepam HCl mixture. […] Standard methods were used to calculate the following pharmacokinetic parameters using a non-compartmental analysis (WinNonlin 2.1; Pharmasight Corp., Mountain View, CA). The extent of absolute oral bioavailability (F) was calculated by dividing the AUCoral/AUCiv at the same dose. […]
Observation type: Tmax (min)
Report the value in min with no unit label.

What value of Tmax has been recorded for this entry: COc1c(O)cc2oc3cc(O)c(CC=C(C)C)c(O)c3c(=O)c2c1CC=C(C)C [α-MG, α-Mangostin]
30
